From: ChEMBL document CHEMBL3228010

- System: L1210
- protocol-description: Antitumor activity against mouse L1210 cells […] in ip dosed C3H X DBA2 F1 hybrid mouse on day 0 and dosed once daily on days 1 to 5 assessed as increase in life span relative to control
- Type: functional
For each of the compounds below, state its D40.
Put your answer as a value accompanied by its unit after it.

Field: example entries. Status: answers known.
CC[n+]1cc(-c2ccc(NC(=O)/C=C/c3ccc(C(=O)Nc4ccc(-c5c[n+](CC)c(N)nc5N)cc4)cc3)cc2)c(N)nc1N.Cc1ccc(S(=O)(=O)[O-])cc1.Cc1ccc(S(=O)(=O)[O-])cc1: 5.1 mg/kg
C[n+]1cccc(NC(=O)c2ccc(NC(=O)c3ccc(C(=O)Nc4ccc(C(=O)Nc5ccc[n+](C)c5)c(N)c4)cc3N)cc2)c1.Cc1ccc(S(=O)(=O)[O-])cc1.Cc1ccc(S(=O)(=O)[O-])cc1: 1.4 mg/kg
C[n+]1cccc(NC(=O)c2ccc(NC(=O)c3ccc(C(=O)Nc4ccc(C(=O)Nc5ccc[n+](C)c5)cc4)cc3)cc2)c1.Cc1ccc(S(=O)(=O)[O-])cc1.Cc1ccc(S(=O)(=O)[O-])cc1: 5.9 mg/kg
CCC[n+]1cccc(NC(=O)c2ccc(NC(=O)c3ccc(C(=O)Nc4ccc5c(ccc[n+]5CCC)c4)cc3)cc2)c1.Cc1ccc(S(=O)(=O)[O-])cc1.Cc1ccc(S(=O)(=O)[O-])cc1: 10.2 mg/kg
CC[n+]1ccc(Nc2ccc(NC(=O)/C=C/c3ccc(/C=C/C(=O)Nc4ccc(Nc5cc[n+](CC)cc5)cc4)cc3)cc2)cc1.Cc1ccc(S(=O)(=O)[O-])cc1.Cc1ccc(S(=O)(=O)[O-])cc1: 9 mg/kg
CC[n+]1cccc(NC(=O)c2ccc(NC(=O)c3ccc(C(=O)Nc4ccc(C(=O)Nc5ccc[n+](CC)c5)cc4)c(Cl)c3)cc2)c1.Cc1ccc(S(=O)(=O)[O-])cc1.Cc1ccc(S(=O)(=O)[O-])cc1: 22 mg/kg
CCC[n+]1cccc2cc(NC(=O)c3ccc(C(=O)Nc4ccc5c(ccc[n+]5CCC)c4)cc3)ccc21.Cc1ccc(S(=O)(=O)[O-])cc1.Cc1ccc(S(=O)(=O)[O-])cc1: 15 mg/kg
CC[n+]1c(C)cc(Nc2ccc(NC(=O)c3ccc(C(=O)Nc4ccc(Nc5cc(C)[n+](CC)c(N)n5)cc4)cc3)cc2)nc1N.Cc1ccc(S(=O)(=O)[O-])cc1.Cc1ccc(S(=O)(=O)[O-])cc1: 69 mg/kg
C[n+]1cccc(NC(=O)c2ccc(NC(=O)C34CCC(C(=O)Nc5ccc(C(=O)Nc6ccc[n+](C)c6)cc5)(CC3)CC4)cc2)c1.Cc1ccc(S(=O)(=O)[O-])cc1.Cc1ccc(S(=O)(=O)[O-])cc1: 4.3 mg/kg
CCC[n+]1ccc(Nc2ccc(NC(=O)c3ccc(C(=O)Nc4ccc(Nc5cc[n+](CCC)cc5)cc4)cc3)cc2)cc1.Cc1ccc(S(=O)(=O)[O-])cc1.Cc1ccc(S(=O)(=O)[O-])cc1: 0.6 mg/kg

Batch lookup, D40 per entry.
1. CC[n+]1ccc(Nc2ccc(NC(=O)c3ccc(Nc4cc(C)[n+](CC)c5ccc(N)cc45)cc3N)cc2)cc1.[I-].[I-]
2. C[n+]1cccc(NC(=O)c2ccc(NC(=O)/C=C/c3ccc(C(=O)Nc4ccc(C(=O)Nc5ccc[n+](C)c5)cc4)cc3)cc2)c1.Cc1ccc(S(=O)(=O)[O-])cc1.Cc1ccc(S(=O)(=O)[O-])cc1
3. C[n+]1ccc(Nc2ccc(NC(=O)/C=C/c3ccc(C(=O)Nc4ccc(Nc5cc[n+](C)cc5)cc4)cc3)cc2)cc1.Cc1ccc(S(=O)(=O)[O-])cc1.Cc1ccc(S(=O)(=O)[O-])cc1
4. CCC[n+]1cccc2cc(NC(=O)c3ccc(C(=O)Nc4ccc5c(ccc[n+]5CCC)c4)c(N)c3)ccc21.Cc1ccc(S(=O)(=O)[O-])cc1.Cc1ccc(S(=O)(=O)[O-])cc1
5. CC[n+]1cccc2cc(NC(=O)c3ccc(C(=O)Nc4ccc(NC(=O)c5ccc6c(ccc[n+]6CC)c5)cc4)cc3)ccc21.Cc1ccc(S(=O)(=O)[O-])cc1.Cc1ccc(S(=O)(=O)[O-])cc1
6. C[n+]1cccc(NC(=O)c2ccc(NC(=O)c3ccc(C(=O)Nc4ccc(C(=O)Nc5ccc[n+](C)c5)cc4)cc3)cc2)c1.[I-].[I-]
7. C[n+]1cccc(NC(=O)c2ccc(NC(=O)c3ccc(C(=O)Nc4ccc(C(=O)Nc5ccc[n+](C)c5)c5ccccc45)cc3)cc2)c1.Cc1ccc(S(=O)(=O)[O-])cc1.Cc1ccc(S(=O)(=O)[O-])cc1
8. C[n+]1ccc(Nc2ccc(C(=O)Nc3ccc(Nc4cc[n+](C)c5ccc(N)cc45)cc3)c(N)c2)cc1.[Br-].[Br-]

RESULT:
7.2 mg/kg
21 mg/kg
4.2 mg/kg
3.9 mg/kg
35 mg/kg
7.5 mg/kg
72 mg/kg
1 mg/kg

Batch lookup, D40 per entry.
1. C[n+]1ccc(Nc2ccc(NC(=O)/C=C/c3ccc(Nc4cc[n+](C)c5ccccc45)cc3)cc2)cc1.[Br-].[Br-]
2. CCCC[n+]1cccc2cc(NC(=O)/C=C/c3ccc(C(=O)Nc4ccc5c(ccc[n+]5CCCC)c4)cc3)ccc21.Cc1ccc(S(=O)(=O)[O-])cc1.Cc1ccc(S(=O)(=O)[O-])cc1
3. COCC[n+]1cccc2cc(NC(=O)c3ccc(C(=O)Nc4ccc5c(ccc[n+]5CCOC)c4)cc3)ccc21.Cc1ccc(S(=O)(=O)[O-])cc1.Cc1ccc(S(=O)(=O)[O-])cc1

RESULT:
["1.3 mg/kg", "25 mg/kg", "11 mg/kg"]

----------
- Test system: Mus musculus
- protocol-description: Toxicity in ip dosed C3H X DBA2 F1 hybrid mouse […] with mouse L1210 cells on day 0 and dosed once daily on days 1 to 5 measured after 50 days
- Format: organism-based
- test-conditions: in vivo, 1200 h
measured-quantity: log10 of LD10 (log10 of the value in mg/kg)
For clarity, the numbers are log10 values of LD10 expressed in mg/kg.

Field: example entries. Status: answers known.
C[n+]1cccc(NC(=O)c2ccc(NC(=O)c3ccc(C(=O)Nc4ccc(C(=O)Nc5ccc[n+](C)c5)c5ccccc45)cc3)cc2)c1.Cc1ccc(S(=O)(=O)[O-])cc1.Cc1ccc(S(=O)(=O)[O-])cc1: 1.88
CC[n+]1ccc(Nc2ccc(C(=O)Nc3ccc(Nc4cc[n+](CC)c5ccccc45)cc3)cc2)cc1.[Br-].[Br-]: 1.00
CCCC[n+]1cccc2cc(NC(=O)c3ccc(NC(=O)c4ccc5c(ccc[n+]5CCCC)c4)cc3)ccc21.Cc1ccc(S(=O)(=O)[O-])cc1.Cc1ccc(S(=O)(=O)[O-])cc1: 2.30
C[n+]1cccc(NC(=O)c2ccc(NC(=O)c3ccc(C(=O)Nc4ccc(-c5ccc(-c6ccc(-c7ccc[n+](C)c7)cc6)cc5)cc4)cc3)cc2)c1.Cc1ccc(S(=O)(=O)[O-])cc1.Cc1ccc(S(=O)(=O)[O-])cc1: 1.15

Batch lookup, log10 of LD10 per entry.
1. CC[n+]1cccc(NC(=O)c2ccc(NC(=O)c3ccc(C(=O)Nc4ccc5c(ccc[n+]5CC)c4)cc3)cc2)c1.Cc1ccc(S(=O)(=O)[O-])cc1.Cc1ccc(S(=O)(=O)[O-])cc1
2. Br.C/C(=N\NC(=N)N)c1ccc(NC(=O)c2ccc(Nc3cc[n+](C)c4ccc(N)cc34)cc2)cc1.[Br-]
3. C[n+]1ccc(Nc2ccc(NC(=O)/C=C/c3ccc(C(=O)Nc4ccc(Nc5cc[n+](C)cc5)cc4)cc3)cc2)cc1.Cc1ccc(S(=O)(=O)[O-])cc1.Cc1ccc(S(=O)(=O)[O-])cc1
4. CC[n+]1cccc(NC(=O)c2ccc(NC(=O)c3ccc(C(=O)Nc4ccc(C(=O)Nc5ccc[n+](CC)c5)cc4)c(N)c3)cc2)c1.Cc1ccc(S(=O)(=O)[O-])cc1.Cc1ccc(S(=O)(=O)[O-])cc1

RESULT:
1. 0.95
2. 1.45
3. 1.04
4. 1.15

Batch lookup, log10 of LD10 per entry.
1. Cc1ccc(S(=O)(=O)[O-])cc1.Cc1ccc(S(=O)(=O)[O-])cc1.Cc1cccc2c(Nc3ccc(C(=O)Nc4ccc(Nc5cc[n+](C)cc5)cc4)cc3)cc[n+](C)c12
2. C[n+]1cccc(NC(=O)c2ccc(NC(=O)c3ccc(C(=O)Nc4ccc5c(ccc[n+]5C)c4)cc3)cc2)c1.Cc1ccc(S(=O)(=O)[O-])cc1.Cc1ccc(S(=O)(=O)[O-])cc1
3. CC[n+]1ccc(-c2ccc(-c3ccc(-c4ccc(NC(=O)c5ccc(C(=O)Nc6ccc(-c7ccc(-c8ccc(-c9cc[n+](CC)cc9)cc8)cc7)cc6)cc5)cc4)cc3)cc2)cc1.Cc1ccc(S(=O)(=O)[O-])cc1.Cc1ccc(S(=O)(=O)[O-])cc1

RESULT:
1.78
1.43
1.15

----------
- protocol-description: Displacement of ethidium from poly[d(A-T)]-poly[d(A-T)] DNA by fluorimetric method
With a cut-off of 0.3 µM, any C50 strictly below it is called class 1; any C50 meeting it or above is called class 0.

Take a look at these entries with their results.
C[n+]1ccc(Nc2ccc(NC(=O)c3ccc(C(=O)Nc4ccc(Nc5cc[n+](C)c(N)n5)cc4)cc3)cc2)nc1N.Cc1ccc(S(=O)(=O)[O-])cc1.Cc1ccc(S(=O)(=O)[O-])cc1: class 1
Cc1cc(Nc2ccc(NC(=O)c3ccc(C(=O)Nc4ccc(C(=O)Nc5ccc[n+](C)c5)cc4)cc3)cc2)nc(N)n1.I.[I-]: class 1
C[n+]1cccc(NC(=O)c2ccc(NC(=O)c3ccc(C(=O)Nc4ccc(C(=O)Nc5ccc[n+](C)c5)c(N)c4)cc3)cc2N)c1.Cc1ccc(S(=O)(=O)[O-])cc1.Cc1ccc(S(=O)(=O)[O-])cc1: class 1
C[n+]1cccc(NC(=O)c2ccc(NC(=O)c3ccc(Nc4c5ccccc5[n+](C)c5ccc(N)cc45)cc3)cc2)c1.[Cl-].[Cl-]: class 1
C[n+]1ccc(Nc2ccc(NC(=O)c3ccc(Nc4cc[n+](C)c5ccc(Cl)cc45)cc3)cc2)cc1.Cc1ccc(S(=O)(=O)[O-])cc1.Cc1ccc(S(=O)(=O)[O-])cc1: class 1

Field: next compound
QUERY: Consider C[n+]1cccc(NC(=O)c2ccc(NC(=O)c3ccc(C(=O)Nc4ccc(C(=O)Nc5ccc[n+](C)c5)cc4Cl)cc3)c(Cl)c2)c1.Cc1ccc(S(=O)(=O)[O-])cc1.Cc1ccc(S(=O)(=O)[O-])cc1 . Does its C50 lie strictly below 0.3 µM?
RESULT: class 0
